Values of Ki for Carbonic anhydrase 2 (Homo sapiens, UniProt P00918), collected from a number of published sources:
result-type: Ki

smiles_str=NC(=O)CC[C@H](NC(=O)c1ccc(Cl)c(S(N)(=O)=O)c1)C(=O)O measurement="305 nM"
smiles_str=NS(=O)(=O)c1ccc(C(=O)Nc2nnc(S(N)(=O)=O)s2)cc1 measurement="3 nM"
smiles_str=COC(=O)[C@H]1O[C@@H](SNCc2ccc(S(N)(=O)=O)cc2)[C@H](OC(C)=O)[C@@H](OC(C)=O)[C@H]1OC(C)=O measurement="18.1 nM"
smiles_str=COc1ccc(OC)cc1 measurement="3350 nM"
smiles_str=NS(=O)(=O)c1ccc(NC(=O)Nc2c(F)c(F)c(F)c(F)c2F)c(Cl)c1 measurement="80 nM"
smiles_str=CC1(C)OB(c2ccc(C(=O)Nc3nnc(S(N)(=O)=O)s3)cc2)OC1(C)C measurement="3.1 nM"
smiles_str=C/C(=N\Nc1nc(-c2ccc(Cl)cc2)cs1)c1nnn(-c2ccc(S(=O)(=O)Nc3nccs3)cc2)c1C measurement="> 100000 nM"
